Test system: Aurk (Aurora kinase)
Experiment: Inhibition of Aurk in mouse L929sA cells transfected with human Fas assessed as increase in nuclear area at 3 uM after 24 hrs in presence of TNF by Hoechst 33342 staining-based microscopic assay relative to control
Assay type: cell-based
measuredMetric: inhibition at 24 h, 3 µM

{"molSmiles": "Cc1[nH]nc(Nc2nc(Sc3ccc(NC(=O)C4CCCCC4)cc3)nc(N3CCCCC3)n2)c1C", "target": "Aurk (Aurora kinase)", "measuredMetric": "inhibition at 24 h, 3 µM", "result": "< 50%"}
{"molSmiles": "Cc1[nH]nc(Nc2cc(N3CCN(C)CC3)nc(Nc3ccc(NC(=O)C4CCCCC4)cc3)n2)c1C", "target": "Aurk (Aurora kinase)", "measuredMetric": "inhibition at 24 h, 3 µM", "result": "< 50%"}
{"molSmiles": "Cc1[nH]nc(Nc2cc(N3CCOCC3)nc(Sc3ccc(NC(=O)C4CCCCC4)cc3)n2)c1C", "target": "Aurk (Aurora kinase)", "measuredMetric": "inhibition at 24 h, 3 µM", "result": "< 50%"}
{"molSmiles": "Cc1cc(Nc2cc(N3CCCCC3)nc(Sc3ccc(NC(=O)C4CCCCC4)cc3)n2)n[nH]1", "target": "Aurk (Aurora kinase)", "measuredMetric": "inhibition at 24 h, 3 µM", "result": "< 50%"}
{"molSmiles": "Cc1cc(Nc2cc(N3CCOCC3)nc(Nc3ccc(NC(=O)C4CCCCC4)cc3)n2)n[nH]1", "target": "Aurk (Aurora kinase)", "measuredMetric": "inhibition at 24 h, 3 µM", "result": "< 50%"}
{"molSmiles": "Cc1[nH]nc(Nc2cc(N3CCOCC3)nc(Nc3ccc(NC(=O)C4CCCCC4)cc3)n2)c1C", "target": "Aurk (Aurora kinase)", "measuredMetric": "inhibition at 24 h, 3 µM", "result": "< 50%"}
{"molSmiles": "Cc1[nH]nc(Nc2cc(N3CCN(C)CC3)nc(Sc3ccc(NC(=O)C4CCCCC4)cc3)n2)c1C", "target": "Aurk (Aurora kinase)", "measuredMetric": "inhibition at 24 h, 3 µM", "result": "< 50%"}
{"molSmiles": "Cc1[nH]nc(Nc2cc(N3CCCCC3)nc(Nc3ccc(NC(=O)C4CCCCC4)cc3)n2)c1C", "target": "Aurk (Aurora kinase)", "measuredMetric": "inhibition at 24 h, 3 µM", "result": "< 50%"}
{"molSmiles": "Cc1cc(Nc2nc(Sc3ccc(NC(=O)C4CCCCC4)cc3)nc(N3CCOCC3)n2)n[nH]1", "target": "Aurk (Aurora kinase)", "measuredMetric": "inhibition at 24 h, 3 µM", "result": "< 50%"}
{"molSmiles": "Cc1cc(Nc2nc(Nc3ccc(NC(=O)C4CC4)cc3)nc(N3CCCCC3)n2)n[nH]1", "target": "Aurk (Aurora kinase)", "measuredMetric": "inhibition at 24 h, 3 µM", "result": "< 50%"}
{"molSmiles": "Cc1cc(Nc2nc(Sc3ccc(NC(=O)C4CC4)cc3)nc(N3CCOCC3)n2)n[nH]1", "target": "Aurk (Aurora kinase)", "measuredMetric": "inhibition at 24 h, 3 µM", "result": "< 50%"}
{"molSmiles": "Cc1[nH]nc(Nc2nc(Nc3ccc(NC(=O)C4CC4)cc3)nc(N3CCOCC3)n2)c1C", "target": "Aurk (Aurora kinase)", "measuredMetric": "inhibition at 24 h, 3 µM", "result": "< 50%"}
{"molSmiles": "Cc1cc(Nc2cc(N3CCN(C)CC3)nc(Nc3ccc(NC(=O)C4CC4)cc3)n2)n[nH]1", "target": "Aurk (Aurora kinase)", "measuredMetric": "inhibition at 24 h, 3 µM", "result": "< 50%"}
{"molSmiles": "Cc1cc(Nc2nc(Nc3ccc(NC(=O)C4CCCCC4)cc3)nc(N3CCCCC3)n2)n[nH]1", "target": "Aurk (Aurora kinase)", "measuredMetric": "inhibition at 24 h, 3 µM", "result": "< 50%"}
{"molSmiles": "Cc1[nH]nc(Nc2cc(N3CCCCC3)nc(Nc3ccc(NC(=O)C4CC4)cc3)n2)c1C", "target": "Aurk (Aurora kinase)", "measuredMetric": "inhibition at 24 h, 3 µM", "result": "< 50%"}
{"molSmiles": "Cc1cc(Nc2nc(Nc3ccc(NC(=O)C4CC4)cc3)nc(N3CCOCC3)n2)n[nH]1", "target": "Aurk (Aurora kinase)", "measuredMetric": "inhibition at 24 h, 3 µM", "result": "< 50%"}
{"molSmiles": "Cc1[nH]nc(Nc2nc(Sc3ccc(NC(=O)C4CC4)cc3)nc(N3CCN(C)CC3)n2)c1C", "target": "Aurk (Aurora kinase)", "measuredMetric": "inhibition at 24 h, 3 µM", "result": "< 50%"}
{"molSmiles": "Cc1[nH]nc(Nc2nc(Nc3ccc(NC(=O)C4CCCCC4)cc3)nc(N3CCCCC3)n2)c1C", "target": "Aurk (Aurora kinase)", "measuredMetric": "inhibition at 24 h, 3 µM", "result": "< 50%"}
{"molSmiles": "Cc1[nH]nc(Nc2nc(Nc3ccc(NC(=O)C4CC4)cc3)nc(N3CCCCC3)n2)c1C", "target": "Aurk (Aurora kinase)", "measuredMetric": "inhibition at 24 h, 3 µM", "result": "< 50%"}
{"molSmiles": "Cc1cc(Nc2nc(Nc3ccc(NC(=O)C4CCCCC4)cc3)nc(N3CCOCC3)n2)n[nH]1", "target": "Aurk (Aurora kinase)", "measuredMetric": "inhibition at 24 h, 3 µM", "result": "< 50%"}
{"molSmiles": "Cc1cc(Nc2nc(Sc3ccc(NC(=O)C4CCCCC4)cc3)nc(N3CCCCC3)n2)n[nH]1", "target": "Aurk (Aurora kinase)", "measuredMetric": "inhibition at 24 h, 3 µM", "result": "< 50%"}
{"molSmiles": "Cc1[nH]nc(Nc2nc(Sc3ccc(NC(=O)C4CC4)cc3)nc(N3CCCCC3)n2)c1C", "target": "Aurk (Aurora kinase)", "measuredMetric": "inhibition at 24 h, 3 µM", "result": "< 50%"}
{"molSmiles": "Cc1[nH]nc(Nc2cc(N3CCCCC3)nc(Sc3ccc(NC(=O)C4CCCCC4)cc3)n2)c1C", "target": "Aurk (Aurora kinase)", "measuredMetric": "inhibition at 24 h, 3 µM", "result": "< 50%"}
{"molSmiles": "Cc1cc(Nc2nc(Sc3ccc(NC(=O)C4CC4)cc3)nc(N3CCCCC3)n2)n[nH]1", "target": "Aurk (Aurora kinase)", "measuredMetric": "inhibition at 24 h, 3 µM", "result": "< 50%"}
{"molSmiles": "Cc1[nH]nc(Nc2nc(Sc3ccc(NC(=O)C4CC4)cc3)nc(N3CCOCC3)n2)c1C", "target": "Aurk (Aurora kinase)", "measuredMetric": "inhibition at 24 h, 3 µM", "result": "< 50%"}
{"molSmiles": "Cc1[nH]nc(Nc2cc(N3CCN(C)CC3)nc(Nc3ccc(NC(=O)C4CC4)cc3)n2)c1C", "target": "Aurk (Aurora kinase)", "measuredMetric": "inhibition at 24 h, 3 µM", "result": "< 50%"}
{"molSmiles": "Cc1cc(Nc2cc(N3CCN(C)CC3)nc(Sc3ccc(NC(=O)C4CCCCC4)cc3)n2)n[nH]1", "target": "Aurk (Aurora kinase)", "measuredMetric": "inhibition at 24 h, 3 µM", "result": "< 50%"}
{"molSmiles": "Cc1[nH]nc(Nc2nc(Nc3ccc(NC(=O)C4CCCCC4)cc3)nc(N3CCOCC3)n2)c1C", "target": "Aurk (Aurora kinase)", "measuredMetric": "inhibition at 24 h, 3 µM", "result": "< 50%"}
{"molSmiles": "Cc1cc(Nc2nc(Nc3ccc(NC(=O)C4CCCCC4)cc3)nc(N3CCN(C)CC3)n2)n[nH]1", "target": "Aurk (Aurora kinase)", "measuredMetric": "inhibition at 24 h, 3 µM", "result": "< 50%"}
{"molSmiles": "Cc1[nH]nc(Nc2nc(Nc3ccc(NC(=O)C4CC4)cc3)nc(N3CCN(C)CC3)n2)c1C", "target": "Aurk (Aurora kinase)", "measuredMetric": "inhibition at 24 h, 3 µM", "result": "< 50%"}
{"molSmiles": "Cc1cc(Nc2cc(N3CCCCC3)nc(Nc3ccc(NC(=O)C4CCCCC4)cc3)n2)n[nH]1", "target": "Aurk (Aurora kinase)", "measuredMetric": "inhibition at 24 h, 3 µM", "result": "< 50%"}
{"molSmiles": "Cc1cc(Nc2cc(N3CCOCC3)nc(Nc3ccc(NC(=O)C4CC4)cc3)n2)n[nH]1", "target": "Aurk (Aurora kinase)", "measuredMetric": "inhibition at 24 h, 3 µM", "result": "< 50%"}
{"molSmiles": "Cc1[nH]nc(Nc2nc(Nc3ccc(NC(=O)C4CCCCC4)cc3)nc(N3CCN(C)CC3)n2)c1C", "target": "Aurk (Aurora kinase)", "measuredMetric": "inhibition at 24 h, 3 µM", "result": "< 50%"}
{"molSmiles": "Cc1cc(Nc2cc(N3CCN(C)CC3)nc(Nc3ccc(NC(=O)C4CCCCC4)cc3)n2)n[nH]1", "target": "Aurk (Aurora kinase)", "measuredMetric": "inhibition at 24 h, 3 µM", "result": "< 50%"}
{"molSmiles": "Cc1[nH]nc(Nc2nc(Sc3ccc(NC(=O)C4CCCCC4)cc3)nc(N3CCN(C)CC3)n2)c1C", "target": "Aurk (Aurora kinase)", "measuredMetric": "inhibition at 24 h, 3 µM", "result": "< 50%"}
{"molSmiles": "Cc1[nH]nc(Nc2cc(N3CCOCC3)nc(Nc3ccc(NC(=O)C4CC4)cc3)n2)c1C", "target": "Aurk (Aurora kinase)", "measuredMetric": "inhibition at 24 h, 3 µM", "result": "< 50%"}
